target: substance P receptors (Homo sapiens); construct: The receptor was prepared from human lymphoblast cells (IM-9); endogenous in cells; host or cells: IM-9 human lymphoblast cells (membrane preparation); experiment: Radioligand receptor binding inhibitory activity using receptor from human lymphoblast cells (IM-9), 125I-BHSP; settings: radioligand 125I-BHSP, 25° C., 30 minutes, read-out: IC50 (concentration necessary to cause 50% inhibition)
Sequence (P25103 whole entry): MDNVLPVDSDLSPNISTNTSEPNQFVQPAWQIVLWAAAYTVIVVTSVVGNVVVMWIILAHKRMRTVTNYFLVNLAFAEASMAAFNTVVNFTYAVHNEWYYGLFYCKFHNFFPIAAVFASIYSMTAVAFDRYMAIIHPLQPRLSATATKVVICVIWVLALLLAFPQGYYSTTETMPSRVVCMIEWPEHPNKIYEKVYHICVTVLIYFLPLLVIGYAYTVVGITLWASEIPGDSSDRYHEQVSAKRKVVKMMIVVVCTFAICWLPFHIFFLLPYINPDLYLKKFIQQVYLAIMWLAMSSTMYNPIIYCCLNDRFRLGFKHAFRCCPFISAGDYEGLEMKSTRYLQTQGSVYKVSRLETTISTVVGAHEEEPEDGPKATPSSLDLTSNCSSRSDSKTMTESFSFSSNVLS
The entries below come with measured IC50 values attached.
MEASURED_ATTRIBUTE: IC50 (nM)

INSERT INTO measurements (compound, assay_result) VALUES
  ('CC(=O)NCC(=O)N1CC[C@H](NCc2cc(-c3ccc(Cl)cc3)ccc2OC(F)(F)F)[C@H](c2ccccc2)C1', 0.023),
  ('COCC(=O)N1CC[C@H](NCc2cc(-c3ccc(C#N)cc3F)ccc2OC)[C@H](c2ccccc2)C1', 0.015),
  ('COc1ccc(-c2ccc(C#N)cc2)cc1CN[C@H]1CCN(C(=O)[C@@H](CC(N)=O)NC(C)=O)C[C@H]1c1ccccc1', 0.019),
  ('CC(=O)N1CCC(C(=O)N2CC[C@H](NCc3cc(-c4ccc(C#N)cc4F)ccc3OC(F)(F)F)[C@H](c3ccccc3)C2)CC1', 0.024),
  ('N#Cc1ccc(-c2ccc(OC(F)(F)F)c(CN[C@H]3CCN(C(=O)CO)C[C@H]3c3ccccc3)c2)c(F)c1', 0.015),
  ('N#Cc1ccc(-c2ccc(OC(F)(F)F)c(CN[C@H]3CCN(C(=O)C4CC(=O)NC(=O)C4)C[C@H]3c3ccccc3)c2)c(F)c1', 0.013),
  ('COCC(=O)N1CC[C@H](NCc2cc(-c3ccc(C#N)cc3)ccc2OC)[C@H](c2ccccc2)C1', 0.015),
  ('CC1(C)OC(=O)N(CC(=O)N2CC[C@H](NCc3cc(-c4ccc(C#N)cc4F)ccc3OC(F)(F)F)[C@H](c3ccccc3)C2)C1=O [Example 96]', 0.021),
  ('COc1ccc(-c2ccc(C#N)c(F)c2)cc1CN[C@H]1CCN(C(=O)CNC(C)=O)C[C@H]1c1ccccc1', 0.019),
  ('COc1ccc(-c2ccc(Br)cc2)cc1CN[C@H]1CCN(C(=O)CNC(C)=O)C[C@H]1c1ccccc1', 0.018),
  ('C#Cc1ccc(-c2ccc(OC)c(CN[C@H]3CCN(C(=O)CNC(C)=O)C[C@H]3c3ccccc3)c2)cc1', 0.015),
  ('COc1ccc(-c2ccc(C#N)cc2F)cc1CN[C@H]1CCN(C(=O)C2CCN(C(C)=O)CC2)C[C@H]1c1ccccc1', 0.017),
  ('CC1(C)OC(=O)N(CC(=O)N2CC[C@H](NCc3cc(-c4ccc(C#N)cc4F)ccc3OC(F)(F)F)[C@H](c3ccccc3)C2)C1=O [Example 97]', 0.023);

----------
Where a name gives a salt, the structure may show the parent alone.
MEASURED_ATTRIBUTE: melting point

INSERT INTO measurements (compound, measured_attribute, assay_result) VALUES
  ('O=C1CC(C(=O)N2CC[C@H](NCc3cc(-c4ccc(Cl)cc4F)ccc3OC(F)(F)F)[C@H](c3ccccc3)C2)CC(=O)N1 (as salt: hydrochloride) [Example 132]', 'melting point', '162 to 164 °C'),
  ('CC1(C)OC(=O)N(CC(=O)N2CC[C@H](NCc3cc(-c4ccc(C#N)cc4)ccc3OC(F)(F)F)[C@H](c3ccccc3)C2)C1=O (as salt: hydrochloride) (hydrate or solvate) [Example 137]', 'melting point', '197 to 199 °C'),
  ('N#Cc1ccc(-c2ccc(OC(F)(F)F)c(CN[C@H]3CCN(C(=O)CO)C[C@H]3c3ccccc3)c2)c(F)c1 [Example 100]', 'melting point', '132 to 134 °C'),
  ('CC1(C)OC(=O)N(CC(=O)N2CC[C@H](NCc3cc(-c4ccc(C#N)cc4F)ccc3OC(F)(F)F)[C@H](c3ccccc3)C2)C1=O (as salt: hydrochloride) (hydrate or solvate) [Example 97]', 'melting point', '198 to 200 °C'),
  ('Cl.O=C1CC(C(=O)N2CC[C@H](NCc3cc(-c4ccc(Cl)cc4)ccc3OC(F)(F)F)[C@H](c3ccccc3)C2)CC(=O)N1', 'melting point', '153 °C'),
  ('N#Cc1ccc(-c2ccc(OC(F)(F)F)c(CN[C@H]3CCN(C(=O)C(N)=O)C[C@H]3c3ccccc3)c2)c(F)c1 [Example 104]', 'melting point', '142 to 144 °C');

Sourced from patent US20070149570A1
